# tgt: Human CD79B Protein, His Tag (MALS verified), Cat. No. #CDB-H52H3-1mg, ACRO (human) (UniProt P40259)
# Sequence (P40259 29-159 limits assumed): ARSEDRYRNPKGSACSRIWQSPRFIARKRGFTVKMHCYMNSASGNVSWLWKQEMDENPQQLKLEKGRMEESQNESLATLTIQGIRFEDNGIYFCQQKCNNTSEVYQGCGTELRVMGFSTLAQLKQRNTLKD
# experiment-description: ELISA on coated antigen, anti-myc detection; 200pg antibody added
reported-metric: OD450 nm (OD450)
Lab book: enter the figure in OD450, no units written.

Answered cases to consult:
Data request, read-out OD450 nm, for anti-CD79B single-domain antibody JYB8 (VHH, not shown: small tags and cut ends) VHH: DVQLQESGGGLMQPGGSLSLTCTASISSLSIWVRAWHRQAPGKQRELVAAINSDGQTMYADSVKGRFTISRDSAKTTVSLQMDSLKPEDTAVYYCNVVTPKGQQYWGQGTQVTVSS 0.0418

Data request, read-out OD450 nm, for anti-CD79B single-domain antibody JYB14 (VHH, Alpaca VHH from a phage library; ELISA detected with an anti-myc antibody; a myc tag is not described; not shown: His-tag protein at the C-terminal end) VHH: DVQLQESGGGLVQPGGSLSLTCTASISSLTIWVRAWHRQAPGKQRELVAAINSDGQTMYADSVKGRFTISRDNAKTTVSLQMDSLKPEDTAVYYCNVVTPNGQQYWGQGTQVTVSS 0.0501

Data request, read-out OD450 nm, for anti-CD79B single-domain antibody JYB10 (VHH, Alpaca VHH from a phage library; ELISA detected with an anti-myc antibody; a myc tag is not described; not shown: His-tag protein at the C-terminal end) VHH: DVQLQESGGGLVQPGGSLSLSCAASISSSSIWVRAWHRQAPGKQRELVAAINNDGQTMYADSVKGRFTISRDNAKTTVSLQMNSLKPEDTAVYYCNVVTPKGHQYWGQGTQVTVSS 0.0496

***
Data request, read-out OD450 nm, for anti-CD79B single-domain antibody JYB4 (VHH, Alpaca VHH from a phage library; not shown: His-tag protein at the C-terminal end) VHH: DVQLQESGGGLVQPGGSLRLSCAASGFAFSLYAMSWARQAPGKGLEWVSDIYGDDDSRRNYADSVKGRFTISRDNAKNTVYLQMTNLQPEDTALYYCGKGRDGTRWSAREYEYRGQGTQVTVSS 0.0521

Origin of measurements: patent EP4768505A1
